Task for the reader: assign each of the following variants its reported protein stability index.
B1: KCNK9 (parent)
chain: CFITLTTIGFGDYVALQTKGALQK

# Variants of: B1
# protocol_summary: protein stability index of a GFP-peptide fusion (GPS, HEK-293T) (PSI 1-6); higher = more stable;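 note: lentivirally expressed fusions sorted by FACS into six bins by GFP to DsRed ratio, PSI derived from sequencing read proportions per bin multiplied by bin number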
# applied_conditions: c terminus: a fixed tail appended
Form field (numeric): enter value without unit.

The variant identified as `K24V` registered its protein stability index at 3.03

response.value for `A21W` (field: protein stability index) = 3.01

Per the record, `Y13P` has protein stability index of 2.92

# protein stability index (variant: `A15E` ) is 2.93

Form: variant = `Q23E` ; protein stability index = 1.94

// field: protein stability index; key: `T4W` ; value = 2.91

Entry `V14Q` ; protein stability index = 3.43

protein stability index measured on `G9S` = 1.73

For `K19L` the variant record lists protein stability index as 2.36

Record `Q23T` , field protein stability index: 3.26

Summary for this variant, `A21E` : protein stability index is 3.6

Given item `T7E` , the value recorded as its protein stability index is 2.94

Recorded result, `G20I` , protein stability index: 2.58

Consider `G11T` . Its measured protein stability index is 1.62

Entry `I3E` , protein stability index reported as 2.03

Item: `F10D` | protein stability index: 2.17

Recorded result, `T18H` , protein stability index: 3

So for `L5V` , the logged protein stability index turned out to be 2.34

The reported protein stability index of the variant `T18N` was 2.42

The reported value for `L16S` in terms of protein stability index is 1.75

Memo: `L5K` , reported protein stability index: 1.59

protein stability index reading for `K24L` : 2.51

The recorded protein stability index for entry `L5I` equals 3.75

Short answer for `K19H` : protein stability index was 1.98

Notebook: `Y13N` , protein stability index read as 2.04

The measured protein stability index associated with `G11V` reads 2.31

protein stability index measured on `I8H` = 3.24

Memo: `I3D` , reported protein stability index: 2.82

Lab note: measured protein stability index of `Q17T` was 2.08

// protein stability index lookup, variant = `L5H` , result: 1.77

Entry `D12V` ; protein stability index = 2.96

Just so you know, measured protein stability index for `Y13D` came out at 2.1

Note to self: protein stability index recorded for `D12H` was 3.68

The variant listed as `Y13E` shows protein stability index equal to 2.12

protein stability index measured on `V14K` = 1.82

protein stability index reading for `K24E` : 3.56

// protein stability index value for `T6M` : 4.77

// protein stability index lookup, variant = `A15L` , result: 2.64

Consider `K24P` . Its measured protein stability index is 2.96

Query `Q23S` yields protein stability index of 2.2

Recorded result, `A21M` , protein stability index: 1.99

Please fill in: protein stability index reported for `A21V` = 2.29

The reported protein stability index of the variant `A21H` was 3.21

Briefly, protein stability index measured for `I3Y` : 2.82

Summary for this variant, `K24Y` : protein stability index is 3.16

Given item `L16G` , the value recorded as its protein stability index is 1.89

Please fill in: protein stability index reported for `Q17I` = 2.27

Entry under test: `K24G` . Its protein stability index was 2.28

Looking up `C1M` , I see its protein stability index listed as 3.33

For this variant ( `K19S` ), measured protein stability index is 2.11

// protein stability index value for `Q17E` : 2.76

Measured protein stability index, `Q17V` : 3.42

The variant listed as `T7S` has a reported protein stability index of 2.53

protein stability index measured on `L22T` = 3.37

Record `L22D` , field protein stability index: 4.33

The recorded protein stability index for `T6N` is 2.89

# protein stability index (variant: `F2S` ) is 2.72
